Molecular target: Diaphorase
Assay: peptide array, 1 uM labeled diaphorase, no FAD
endpoint: fluorescence

For orientation, consider the following solved cases.
> print(dat)
            binder      endpoint  endpoint.result
1     YNRNAKSSGGSG  fluorescence             4010
2      RWSFPAKGGSG  fluorescence            10000
3      RSHPKHNVGSG  fluorescence             1950
4      PRYQNFGGGSG  fluorescence             6910
5        RWYKNGGSG  fluorescence            10200
6    YRFPNAQSPGGSG  fluorescence             6240
7    PRSFGYNNVGGSG  fluorescence             6840
8  WLDLGVFPYQHLGSG  fluorescence             2200

// fluorescence lookup, binder = `YRLNLKHPVGGSG` , result: 12700

// fluorescence lookup, binder = `RWQYYNQKFGSG` , result: 15700

// fluorescence lookup, binder = `ELFGALFKGGSG` , result: 2080

// fluorescence lookup, binder = `LLGFLGGSG` , result: 2320

// fluorescence lookup, binder = `RPLQVQRGGS` , result: 5410

// fluorescence lookup, binder = `YRPYGPVYNGGSG` , result: 18700

// fluorescence lookup, binder = `RYYPAFSGGSG` , result: 21900

// fluorescence lookup, binder = `RYAYFQHLGGSG` , result: 13600
